The measured values listed here are drawn from the supplement of paper PMC10065799.

Listed next: entries and their corresponding SH2 binding enrichment.
target: c-Src SH2; test: SH2 binding enrichment of the phosphorylated peptide, bacterial display (enrichment ratio); higher = better substrate or ligand; peptides without Tyr show the background;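 further: peptide library displayed on the E. coli surface as eCPX fusions, selected cells deep-sequenced, score is each peptide's frequency after selection divided by its frequency in the input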
measured metric: SH2 binding enrichment

>>> endpoint_value("SKEPYYVRCIK [MYO1D_Y586]")
0.498
>>> endpoint_value("LHRAHYDLRHT [AHSG_Y314]")
1.19
>>> endpoint_value("LNFNEYFRDLN [HPRT1_Y198_D194N_YF]")
0.608
>>> endpoint_value("DVFLKHLNFAT [PDE6B_Y212_Y212H]")
0.52
>>> endpoint_value("FAKSVYWDNTL [NUP107_Y296_E298D_YF]")
0.691
>>> endpoint_value("KGPGEYVNIEF [IRS1_Y896_S892G]")
5.64
>>> endpoint_value("TEYIQYVRRKN [MAX_Y73_M74V]")
0.463
>>> endpoint_value("KLPYLYDDPFS [GPX2_Y127_P126L]")
2.42
>>> endpoint_value("KDFTIHNPNLL [VANGL1_Y290_Y290H]")
0.444
>>> endpoint_value("GISDEYHMIRH [GCDH_Y398_V400M]")
0.781
>>> endpoint_value("DFPGIYSGFDD [POLR1C_Y33_N32I_YF]")
0.579
>>> endpoint_value("GVYSRYFTTYD [CLCA1_Y661]")
1.06
>>> endpoint_value("YYLGKYLQEVL [KLB_Y910]")
0.686
>>> endpoint_value("ETGEPCRLSPE [EIF4G1_Y311_Y311C]")
0.664
>>> endpoint_value("LFNQDYPIHSV [GATM_Y227_YF]")
0.432
>>> endpoint_value("PQGVRYIFTID [DCX_Y103_YF]")
0.654
>>> endpoint_value("TQPSPYAVYRF [RPGRIP1_Y823]")
1.7
>>> endpoint_value("FMRGMYFRMTD [PLA2G6_Y541_K545T_YF]")
0.914
>>> endpoint_value("MSLDQYSPSFP [FGFR1_Y776_P772S]")
0.45
>>> endpoint_value("AQQPIYIRVEG [NLRP7_Y318_V319I]")
0.591
>>> endpoint_value("RGEKQYLATPL [ALOX12_Y295_A298T]")
0.569
>>> endpoint_value("EKSREYHRLYE [PIK3R1_Y463_D464H]")
6.12
>>> endpoint_value("RLPINYTTRRI [LAMA2_Y2894_G2889R]")
0.471
>>> endpoint_value("EGTGHYLCNAC [GATA5_Y208_D203E]")
0.445
>>> endpoint_value("KDIENYIQDGK [RAD50_Y964]")
0.526
>>> endpoint_value("GISDEYHVIWH [GCDH_Y398_R402W]")
0.568
>>> endpoint_value("EVTLTYATGIK [NFKB1_Y485_T489I]")
0.413
>>> endpoint_value("MSGDVYSTDYY [NTRK2_Y702_R699G]")
0.622

* * *

test system: Fer (mouse); assay: phosphorylation enrichment, bacterial display (enrichment ratio); higher = better substrate or ligand; peptides without Tyr show the background
measured metric: phosphorylation enrichment

>>> endpoint_value("ISHVAYLVLGK [TRRAP_Y892_R893L]")
0.505
>>> endpoint_value("QDRDLYPCPGT [RLF_Y671]")
0.687
>>> endpoint_value("TTICKYITPME [GUCY2C_Y839_S840I]")
0.417
>>> endpoint_value("NPQKSCFIRLF [WAS_Y83_Y83C_YF]")
0.47
>>> endpoint_value("DPEAAYTTRGG [EPHA3_Y779]")
0.45
>>> endpoint_value("EQLQSYQVEII [KRT33A_Y268_A270V]")
0.597
>>> endpoint_value("LLASGYDSPIN [ABLIM1_Y638_R637G]")
0.423

* * *

target: Hck (UniProt P08631); assay: phosphorylation enrichment, bacterial display (enrichment ratio); higher = better substrate or ligand; peptides without Tyr show the background
Sequence (P08631 whole entry, looked up): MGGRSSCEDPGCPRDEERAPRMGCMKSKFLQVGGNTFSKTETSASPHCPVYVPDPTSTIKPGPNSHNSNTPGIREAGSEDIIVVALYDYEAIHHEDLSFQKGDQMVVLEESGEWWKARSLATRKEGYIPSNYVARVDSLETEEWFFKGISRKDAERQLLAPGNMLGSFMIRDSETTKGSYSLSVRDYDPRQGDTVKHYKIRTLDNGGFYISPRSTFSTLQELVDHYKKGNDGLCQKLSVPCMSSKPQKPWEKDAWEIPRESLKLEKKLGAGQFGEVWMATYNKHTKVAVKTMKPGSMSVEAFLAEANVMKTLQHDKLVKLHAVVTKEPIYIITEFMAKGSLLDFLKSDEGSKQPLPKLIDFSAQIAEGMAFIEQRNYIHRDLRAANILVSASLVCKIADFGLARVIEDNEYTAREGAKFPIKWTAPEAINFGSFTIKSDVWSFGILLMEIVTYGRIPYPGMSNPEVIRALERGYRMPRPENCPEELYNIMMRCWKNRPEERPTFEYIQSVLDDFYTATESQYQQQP
Listed next: entries and their corresponding phosphorylation enrichment.
measured metric: phosphorylation enrichment

>>> endpoint_value("RNESFYDTFST [EFCAB3_Y372]")
14.3
>>> endpoint_value("KTKLGYSPLHQ [ANK1_Y735]")
0.322
>>> endpoint_value("THLARYSDELR [APOA1_Y190_P189R]")
0.4
>>> endpoint_value("SQQTFCRVSNM [ABCD1_Y181_Y181C_YF]")
0.5
>>> endpoint_value("FSNVLYRPRGP [TMIGD2_Y197_A202P_YF]")
0.479
>>> endpoint_value("PVQAADQKVVA [HBB_Y131_Y131D]")
0.576
>>> endpoint_value("DGSALYTGSAL [COL6A3_Y524]")
0.858
>>> endpoint_value("SHNKFYMLVAR [MFSD8_Y134_YF]")
0.475
>>> endpoint_value("AISEGYKDFRA [CDA_Y79_V75I]")
0.405
>>> endpoint_value("SHEELYKWFTS [DYNC1H1_Y3051]")
1.25
>>> endpoint_value("GKFRMYVAVWT [F13A1_Y161]")
0.365
>>> endpoint_value("FLAVGYHKPHI [IDS_Y225]")
0.602
>>> endpoint_value("LFFFSYLLKNH [PTEN_Y180_V175L_YF]")
0.705
>>> endpoint_value("ARSHIYTFASC [MEFV_Y741]")
0.671

* * *

target: EPHB1 (UniProt P54762); assay: phosphorylation enrichment, bacterial display (enrichment ratio); higher = better substrate or ligand; peptides without Tyr show the background
Sequence (P54762 whole entry, looked up): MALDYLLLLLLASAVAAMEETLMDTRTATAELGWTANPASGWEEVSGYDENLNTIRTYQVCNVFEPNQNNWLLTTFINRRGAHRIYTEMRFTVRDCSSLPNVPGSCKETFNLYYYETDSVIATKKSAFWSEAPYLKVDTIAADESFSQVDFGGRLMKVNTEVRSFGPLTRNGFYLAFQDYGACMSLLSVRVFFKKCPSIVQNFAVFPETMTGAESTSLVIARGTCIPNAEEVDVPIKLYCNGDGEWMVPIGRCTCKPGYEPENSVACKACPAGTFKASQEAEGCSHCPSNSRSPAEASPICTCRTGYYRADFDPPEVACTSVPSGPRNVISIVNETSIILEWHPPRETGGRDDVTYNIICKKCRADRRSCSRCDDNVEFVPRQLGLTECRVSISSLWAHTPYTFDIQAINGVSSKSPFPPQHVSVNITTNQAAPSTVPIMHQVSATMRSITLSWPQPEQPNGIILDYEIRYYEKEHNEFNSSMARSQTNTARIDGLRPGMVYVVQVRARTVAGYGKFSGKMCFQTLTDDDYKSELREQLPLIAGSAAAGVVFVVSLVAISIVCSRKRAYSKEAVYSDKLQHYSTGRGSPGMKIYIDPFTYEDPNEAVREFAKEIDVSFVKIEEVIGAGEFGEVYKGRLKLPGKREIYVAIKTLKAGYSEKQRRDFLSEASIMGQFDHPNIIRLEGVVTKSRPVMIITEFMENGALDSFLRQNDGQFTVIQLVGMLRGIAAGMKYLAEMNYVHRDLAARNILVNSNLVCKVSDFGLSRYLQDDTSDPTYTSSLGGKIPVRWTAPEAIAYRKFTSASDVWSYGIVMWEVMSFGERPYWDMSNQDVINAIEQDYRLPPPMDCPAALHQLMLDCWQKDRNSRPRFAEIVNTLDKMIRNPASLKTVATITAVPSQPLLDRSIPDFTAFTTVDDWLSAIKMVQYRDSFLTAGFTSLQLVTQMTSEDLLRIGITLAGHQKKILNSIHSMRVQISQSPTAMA
Listed next: entries and their corresponding phosphorylation enrichment.
measured metric: phosphorylation enrichment

>>> endpoint_value("MVIPNYSSWTE [UROC1_Y185_R188W]")
11.1
>>> endpoint_value("ALVDTYCRHNF [HLA-DRB1_Y107_A103L_YF]")
0.55
>>> endpoint_value("LIQRNYKLTAQ [ALPK2_Y1975_A1978T]")
0.479
>>> endpoint_value("IVRSLYEDQED [VHL_Y185_L188Q]")
0.67
>>> endpoint_value("KLQKYYRKNPD [EHHADH_Y683_Q685K]")
0.353
>>> endpoint_value("DGSALYTGSAL [COL6A3_Y524]")
0.418
>>> endpoint_value("YRTPGYREVVI [TNS2_Y673_A670T]")
0.358
>>> endpoint_value("PVQAAYQQVVA [HBB_Y131_K133Q]")
0.566
>>> endpoint_value("EKIANYKEGTF [CLRN1_Y171_YF]")
0.53
>>> endpoint_value("PEVCDYGLGGG [GSTO1_Y239_A236V]")
0.575
>>> endpoint_value("HLDRSYSFSFS [PEAR1_Y890_R885H_YF]")
0.638
>>> endpoint_value("ADLVQYFMEHH [PTPN11_Y80_E76D_YF]")
0.654
>>> endpoint_value("QKFMAYLSQGG [HLCS_Y236]")
0.731
>>> endpoint_value("TLCLCYKETEE [ATP8B1_Y658_I661T]")
0.879
>>> endpoint_value("IVEELYAIPPD [PEAK1_Y797_S792I]")
4.29
>>> endpoint_value("FEGRSYSACTT [MMP9_Y241]")
0.643
>>> endpoint_value("AEMKRYSESSS [RAI14_Y869_A870S]")
0.308
>>> endpoint_value("LKVDVYRRSHK [FUT3_Y222_G223R]")
0.656
>>> endpoint_value("IFLGAYDRFLP [SLC22A5_Y486_V481I_YF]")
0.84
>>> endpoint_value("DLDFTYIFPNI [PTEN_Y27_L25F_YF]")
0.996
>>> endpoint_value("RRKRAYVEIEF [MAK16_Y282_Q277R_YF]")
0.582
>>> endpoint_value("HEKRAYICAHP [ACAD9_Y611_L606H]")
0.454
>>> endpoint_value("RSHLPYDVTPE [IQGAP3_Y1098]")
0.572
>>> endpoint_value("GEDEPYAEPFA [APBA1_Y183_S184A_YF]")
0.584
>>> endpoint_value("TVETKYDNISR [SETDB2_Y477]")
0.71
>>> endpoint_value("YFCRWYRNRKS [EREG_Y144]")
0.621
>>> endpoint_value("SRDDDYETIAM [NPY1R_Y347]")
1.31
>>> endpoint_value("TFGVLYKARNK [CDK2_Y19_V18L_YF]")
0.592

* * *

target: MERTK (UniProt Q12866); assay: phosphorylation enrichment, bacterial display (enrichment ratio); higher = better substrate or ligand; peptides without Tyr show the background
Sequence (Q12866 whole entry, looked up): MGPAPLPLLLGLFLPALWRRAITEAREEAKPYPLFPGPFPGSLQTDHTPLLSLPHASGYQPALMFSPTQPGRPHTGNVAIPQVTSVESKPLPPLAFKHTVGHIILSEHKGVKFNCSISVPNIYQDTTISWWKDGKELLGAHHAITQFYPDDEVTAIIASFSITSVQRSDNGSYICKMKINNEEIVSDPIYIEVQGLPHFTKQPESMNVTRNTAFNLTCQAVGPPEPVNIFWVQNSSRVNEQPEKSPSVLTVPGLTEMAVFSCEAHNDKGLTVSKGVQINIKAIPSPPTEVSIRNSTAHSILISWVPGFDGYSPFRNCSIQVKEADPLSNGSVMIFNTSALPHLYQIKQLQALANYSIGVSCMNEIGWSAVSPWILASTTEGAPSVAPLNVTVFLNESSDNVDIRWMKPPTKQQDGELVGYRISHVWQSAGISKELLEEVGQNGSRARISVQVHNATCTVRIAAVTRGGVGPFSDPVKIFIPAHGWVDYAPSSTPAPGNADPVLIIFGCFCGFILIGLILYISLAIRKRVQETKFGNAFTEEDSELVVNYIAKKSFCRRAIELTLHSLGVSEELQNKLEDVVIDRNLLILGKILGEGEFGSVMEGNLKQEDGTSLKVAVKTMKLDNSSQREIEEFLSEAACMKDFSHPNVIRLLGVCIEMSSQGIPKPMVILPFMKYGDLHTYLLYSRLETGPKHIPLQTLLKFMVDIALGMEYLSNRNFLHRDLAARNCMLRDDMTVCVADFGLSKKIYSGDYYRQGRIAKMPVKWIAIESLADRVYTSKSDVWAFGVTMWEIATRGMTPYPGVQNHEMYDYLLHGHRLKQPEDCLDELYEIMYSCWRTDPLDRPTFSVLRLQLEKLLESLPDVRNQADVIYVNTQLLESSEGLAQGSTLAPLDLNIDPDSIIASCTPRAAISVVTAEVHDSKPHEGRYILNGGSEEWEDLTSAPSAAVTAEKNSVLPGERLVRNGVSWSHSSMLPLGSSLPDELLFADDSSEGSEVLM
measured metric: phosphorylation enrichment

>>> endpoint_value("KDFTIHNPNLL [VANGL1_Y290_Y290H]")
0.453
>>> endpoint_value("ASELGYQFQAI [UROD_Y133_V134Q]")
0.387
>>> endpoint_value("KDIENYIQDGK [RAD50_Y964]")
0.464
>>> endpoint_value("NHQFDYTFHWT [CSNK1A1_Y294_D297H_YF]")
0.573
>>> endpoint_value("ENRKFYMDLKE [PURA_Y156_YF]")
0.432
>>> endpoint_value("MCVKSYTIHFS [F5_Y2153_Y2149C_YF]")
0.448
>>> endpoint_value("KNRDVYSSDYF [USP24_Y2134]")
5.77
>>> endpoint_value("VNRSGYTLIRK [ATP6V0A2_Y688]")
0.386
>>> endpoint_value("QNTGNYFDLFG [PTPN11_Y62_D61N_YF]")
10.8
>>> endpoint_value("QKMADYSNKLF [PDPR_Y104_YF]")
0.788
>>> endpoint_value("DFTSRYLNASD [PKHD1_Y828]")
0.511
>>> endpoint_value("VIKDKYPKVRF [APTX_Y209_A212V_YF]")
0.4
>>> endpoint_value("KSIQLYDTPYE [SHB_Y297_G293S]")
4.79
>>> endpoint_value("LNEAVYTKMMT [G6PD_Y401_P396L]")
3.19
>>> endpoint_value("VIKDKYPKAHY [APTX_Y209_R213H]")
0.285
>>> endpoint_value("TVNIRYLLFPS [SERAC1_Y548_S543T]")
0.606
>>> endpoint_value("VTPVMYTYDEY [COL10A1_Y623_G618V]")
0.912
>>> endpoint_value("EGTGHYLCNAC [GATA5_Y208_D203E]")
0.54
>>> endpoint_value("FVHDNYVIQRT [CPS1_Y1450_R1453Q]")
0.469
>>> endpoint_value("FSNVLYRPRGP [TMIGD2_Y197_A202P_YF]")
0.434
>>> endpoint_value("VDSTEYEVASQ [SLC7A7_Y7]")
0.436
>>> endpoint_value("GISDEYHVIWH [GCDH_Y398_R402W]")
0.391
>>> endpoint_value("SVTCTYSPTLN [TP53_Y126_A129T]")
0.503
>>> endpoint_value("NGRQCYSCRGN [PLAUR_Y217_K220R]")
0.346
>>> endpoint_value("CTTIHYNFMCS [TP53_Y234_N239S_YF]")
0.5
>>> endpoint_value("FSAPNYCFRCG [PPP2CA_Y265_YF]")
0.393
>>> endpoint_value("ESMLRYEVYGG [STOX1_Y607]")
0.506
>>> endpoint_value("TNGFTCGSSHQ [MANEA_Y331_Y331C]")
0.435
